Each entry below carries its recorded Increase in dP/dtmax.
Tested on: Canis familiaris
assay-explanation: Percent increase in dP/dtmax (positive inotropic activity) in anesthetized dog after administration of 50 ug/kg Intravenously
Type: functional, Canis lupus familiaris
Use % as the unit, but write only the number.

>>> readout_value("Cc1cc(-n2cnnc2)cc2c1NC1=NC(=O)CN1C2")
24
>>> readout_value("Cc1ccc(-c2ccc3c(c2)CN2CC(=O)NC2=N3)c(C)n1")
29

In: Form field: reported Increase in dP/dtmax of `Cc1cc(-n2cncn2)cc2c1NC1=NC(=O)CN1C2`
Out: 76

In: Form field: reported Increase in dP/dtmax of `O=C1CN2Cc3cc(-n4cncn4)ccc3N=C2N1`
Out: 63

In: Form field: reported Increase in dP/dtmax of CC1CC(O)=NN=C1c1ccc(-n2ccnc2)cc1.Cl (stereo unspecified)
Out: 100

In: Form field: reported Increase in dP/dtmax of Cc1ccc(-c2ccc3c(c2)C(C)N2CC(=O)N=C2N3)c(C)n1 (stereo unspecified)
Out: 50
